Each entry below carries its recorded pKd.
- Study target: Tyrosine-protein kinase JAK2 [Y1007F,Y1008F] (Homo sapiens, UniProt O60674, Y1007F/Y1008F)
- Sequence (O60674 whole entry Y1007F/Y1008F): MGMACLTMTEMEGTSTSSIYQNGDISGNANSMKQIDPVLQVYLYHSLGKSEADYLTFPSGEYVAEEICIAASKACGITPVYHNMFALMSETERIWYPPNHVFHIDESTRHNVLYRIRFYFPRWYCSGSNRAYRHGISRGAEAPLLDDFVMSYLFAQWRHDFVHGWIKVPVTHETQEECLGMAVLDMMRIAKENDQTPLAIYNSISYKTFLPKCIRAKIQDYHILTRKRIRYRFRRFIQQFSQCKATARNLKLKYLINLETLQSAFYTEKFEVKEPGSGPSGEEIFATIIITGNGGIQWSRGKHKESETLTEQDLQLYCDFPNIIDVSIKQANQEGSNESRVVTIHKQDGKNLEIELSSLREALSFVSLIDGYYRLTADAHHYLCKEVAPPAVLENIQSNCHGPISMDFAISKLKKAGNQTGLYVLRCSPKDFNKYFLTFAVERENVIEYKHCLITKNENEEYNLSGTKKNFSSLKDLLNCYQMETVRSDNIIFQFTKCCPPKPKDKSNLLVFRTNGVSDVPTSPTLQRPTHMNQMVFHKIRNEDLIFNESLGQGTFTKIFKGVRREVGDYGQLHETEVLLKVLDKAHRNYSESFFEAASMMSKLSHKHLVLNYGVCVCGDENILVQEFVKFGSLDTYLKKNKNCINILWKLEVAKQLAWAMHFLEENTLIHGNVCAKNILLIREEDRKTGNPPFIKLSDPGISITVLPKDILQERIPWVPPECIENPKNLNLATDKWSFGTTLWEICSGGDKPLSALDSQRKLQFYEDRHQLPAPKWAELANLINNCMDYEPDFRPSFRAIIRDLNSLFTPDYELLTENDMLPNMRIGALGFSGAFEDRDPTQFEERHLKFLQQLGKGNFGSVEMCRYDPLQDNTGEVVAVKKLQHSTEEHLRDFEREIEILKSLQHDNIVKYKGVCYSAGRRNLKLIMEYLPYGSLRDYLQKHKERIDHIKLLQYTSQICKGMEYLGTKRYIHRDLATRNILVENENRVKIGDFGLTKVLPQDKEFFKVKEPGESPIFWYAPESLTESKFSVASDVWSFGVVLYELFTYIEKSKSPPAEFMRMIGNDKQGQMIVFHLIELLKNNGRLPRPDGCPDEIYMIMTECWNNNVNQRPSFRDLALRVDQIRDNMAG
- Protocol text: JAK2 Binding Assay
- Method: Streptavidin-coated magnetic beads were treated with biotinylated small molecule ligands for 30 minutes at room temperature to generate affinity resins for kinase assays. The liganded beads were blocked with excess biotin and washed with blocking buffer (SeaBlock (Pierce), 1% BSA, 0.05% Tween 20, 1 mmol/L DTT) to remove unbound ligand and to reduce nonspecific phage binding. […] The kinase concentration in the eluate was measured by qPCR.
pKd: −log10 of the molar value.

{"Compound": "CC(=O)Nc1cc(Oc2ccc3nc(Nc4cc(C(C)(C)C)n(C[C@H]5C[C@@H](O)C5)n4)n(C)c3c2)ccn1 [US11691963, Example I-28]", "pKd": "> 8.00"}
{"Compound": "CC(=O)Nc1cc(Oc2ccc3nc(Nc4cc5n(n4)CCCC5(C)C)n(C)c3n2)ccn1 [US11691963, Example I-42]", "pKd": "> 8.00"}
{"Compound": "CC(=O)Nc1cc(Oc2cnc3nc(Nc4cc(C(C)(C)C)n([C@H]5C[C@H](O)C5)n4)n(C)c3c2)ccn1 [US11691963, Example I-115]", "pKd": "> 8.00"}

Now look at this entry.
Req: Could you tell me which pKd is on file for CC(=O)Nc1cc(Oc2cnc3nc(Nc4cc(C(C)(C)C)n([C@H]5C[C@@H](O)C5)n4)n(C)c3c2)ccn1 [US11691963, Example I-116] ?
Resp: > 8.00
